- MEASUREMENT_NOTES: Cytotoxicity against human HL60 cells after 72 hrs by MTT assay
- CONDITION: HL-60, 72 h
pIC50: −log10 of the molar value.
# key: entry, value: pIC50
OBSERVATION_TYPE: pIC50

In [3]: df
Out[3]:
                            molecule_smiles  observation_type  number
0  O=P(O)(O)OC[C@H]1O[C@@H](n2cnc3c(-c4ccc5cc[nH]c5c4)ncnc32)[C@H](O)[C@@H]1O             pIC50    6.30
1  O=P(O)(O)OC[C@H]1O[C@@H](n2cnc3c(-c4ccccc4)ncnc32)[C@H](O)[C@@H]1O             pIC50    5.77
2  O=P(O)(O)OC[C@H]1O[C@@H](n2cnc3c(-c4ccc(O)cc4)ncnc32)[C@H](O)[C@@H]1O             pIC50    6.30
3  O=P(O)(O)OC[C@H]1O[C@@H](n2cnc3c(NCc4ccccc4)ncnc32)[C@H](O)[C@@H]1O             pIC50    5.30
4  O=P(O)(O)OC[C@H]1O[C@@H](n2cnc3c(-c4cccc(Br)c4)ncnc32)[C@H](O)[C@@H]1O             pIC50    5.41
5  O=P(O)(O)OC[C@H]1O[C@@H](n2cnc3c(-c4ccoc4)ncnc32)[C@H](O)[C@@H]1O             pIC50    4.81
6  O=P(O)(O)OC[C@H]1O[C@@H](n2cnc3c(-c4ccc(Cl)s4)ncnc32)[C@H](O)[C@@H]1O             pIC50    5.19

----------
- MEASUREMENT_NOTES: Cytotoxicity against human HCT116 cells at 10 uM after 72 hrs by MTT assay
- CONDITION: HCT-116, 72 h, read-out: INH
OBSERVATION_TYPE: inhibition at 10 µM

>>> df
                            molecule_smiles  result
0  O=P(O)(O)OC[C@H]1O[C@@H](n2cnc3c(-c4ccc5cc[nH]c5c4)ncnc32)[C@H](O)[C@@H]1O   > 90%
1  O=P(O)(O)OC[C@H]1O[C@@H](n2cnc3c(-c4ccc(O)cc4)ncnc32)[C@H](O)[C@@H]1O   > 90%
2  O=P(O)(O)OC[C@H]1O[C@@H](n2cnc3c(-c4ccc(Cl)s4)ncnc32)[C@H](O)[C@@H]1O   > 90%
3  O=P(O)(O)OC[C@H]1O[C@@H](n2cnc3c(-c4ccccc4)ncnc32)[C@H](O)[C@@H]1O   > 90%
4  O=P(O)(O)OC[C@H]1O[C@@H](n2cnc3c(-c4ccoc4)ncnc32)[C@H](O)[C@@H]1O   > 90%
5  O=P(O)(O)OC[C@H]1O[C@@H](n2cnc3c(-c4cccc(Br)c4)ncnc32)[C@H](O)[C@@H]1O   > 90%
